Provide the recorded pIC50 for the entries that follow.
target: UniProt Q04771; experiment: ALK2 HTRF Assay; format: biochemical; conditions: ALK2 3 μM IC50, 3 uM ATP
pIC50: −log10 of the molar value.

Please fill in: pIC50 reported for CNC(=O)c1ccc(-n2cc(-c3n[nH]c4cnc(N5C6CCC5C(=O)N(C)C6)nc34)cn2)cc1F (stereo not drawn) = 5.70 to 6.30

Please fill in: pIC50 reported for CN1CC2CCC(C1=O)N2c1ncc2[nH]nc(-c3cnn(Cc4ccncc4)c3)c2n1 (stereo not drawn) = 5.70 to 6.30

Please fill in: pIC50 reported for COC(=O)N1C[C@@H](C)N(c2ncc3[nH]nc(-c4ccc(N5CCC(O)CC5)cc4)c3n2)[C@@H](C)C1 = 6.30 to 7.00

Please fill in: pIC50 reported for Cn1cc(-c2n[nH]c3cnc(N4CCc5ncccc5C4)nc23)cn1 = 5.70 to 6.30

Please fill in: pIC50 reported for CN(C)C(=O)c1ccc(-n2cc(-c3n[nH]c4cnc(N5C6CCC5C(=O)N(C)C6)nc34)cn2)cc1 (stereo not drawn) = 6.30 to 7.00

Please fill in: pIC50 reported for CN1CC2CCC(C1=O)N2c1ncc2[nH]nc(-c3cnn(-c4ccc(N(C)C)nc4)c3)c2n1 (stereo not drawn) = 5.70 to 6.30

---

Provide the recorded IC50 for the entries that follow.
target: UniProt P11362; assay: FGFR Enzymatic Assay, FGFR1 un-phosphorylated
Sequence (P11362 22-822): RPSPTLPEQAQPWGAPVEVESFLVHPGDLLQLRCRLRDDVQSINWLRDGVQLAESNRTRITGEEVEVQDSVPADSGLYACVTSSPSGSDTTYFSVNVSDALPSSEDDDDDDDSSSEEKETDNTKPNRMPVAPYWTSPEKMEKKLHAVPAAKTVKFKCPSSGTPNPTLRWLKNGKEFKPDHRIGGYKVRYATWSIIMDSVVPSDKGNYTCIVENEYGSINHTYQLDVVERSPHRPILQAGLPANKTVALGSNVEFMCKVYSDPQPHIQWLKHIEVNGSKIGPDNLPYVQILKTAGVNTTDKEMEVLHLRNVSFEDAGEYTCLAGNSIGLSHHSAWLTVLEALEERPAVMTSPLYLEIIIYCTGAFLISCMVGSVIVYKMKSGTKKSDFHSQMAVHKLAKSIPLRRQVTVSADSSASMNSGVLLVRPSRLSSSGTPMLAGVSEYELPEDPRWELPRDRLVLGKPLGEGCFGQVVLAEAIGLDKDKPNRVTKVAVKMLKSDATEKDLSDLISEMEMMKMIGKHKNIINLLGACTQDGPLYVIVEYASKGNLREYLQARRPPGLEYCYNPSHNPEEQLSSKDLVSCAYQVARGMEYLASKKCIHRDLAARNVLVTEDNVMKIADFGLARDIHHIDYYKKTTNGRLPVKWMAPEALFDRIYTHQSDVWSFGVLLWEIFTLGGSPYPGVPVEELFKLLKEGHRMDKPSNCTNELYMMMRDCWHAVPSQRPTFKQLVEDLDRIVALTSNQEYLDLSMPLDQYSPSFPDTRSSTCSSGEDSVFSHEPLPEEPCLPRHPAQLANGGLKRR

Please fill in: IC50 reported for CCC1C(=O)N(C)CCN1c1ncc2[nH]nc(-c3cnn(C)c3)c2n1 (centres unmarked) = 100 to 500 nM

Please fill in: IC50 reported for CC1C(=O)N(CC(F)F)CCN1c1ncc2[nH]nc(-c3cnn(C)c3)c2n1 (centres unmarked) = 100 to 500 nM

Please fill in: IC50 reported for CC(C)NC(=O)N1C[C@@H](C)N(c2ncc3[nH]nc(-c4ccc(N5CCN[C@H](C)C5)nc4)c3n2)[C@@H](C)C1 = 500 to 2000 nM

Please fill in: IC50 reported for CC(C)C(=O)N1CCC(n2cc(-c3n[nH]c4cnc(N5C6CCC5C(=O)N(C)C6)nc34)cn2)CC1 (centres unmarked) = 100 to 500 nM

Please fill in: IC50 reported for CC(C)N1CC2CCC(C1=O)N2c1ncc2[nH]nc(-c3cnn(C)c3)c2n1 (centres unmarked) = 100 to 500 nM

Please fill in: IC50 reported for Cc1cnc2n1CCN(c1ncc3[nH]nc(-c4ccc(N5CCN[C@H](C)C5)nc4)c3n1)C2 = 500 to 2000 nM

Please fill in: IC50 reported for Cc1cc(C#N)ccc1-n1cc(-c2n[nH]c3cnc(N4C5CCC4C(=O)N(C)C5)nc23)cn1 (centres unmarked) = 500 to 2000 nM

Please fill in: IC50 reported for CC(C)N1CCN(c2ncc3[nH]nc(-c4cnn(C)c4)c3n2)C(C)C1=O (centres unmarked) = 500 to 2000 nM

Please fill in: IC50 reported for CNC(=O)c1ccc(-c2n[nH]c3cnc(N4[C@H](C)CN(C(=O)OC)C[C@@H]4C)nc23)cc1 = 500 to 2000 nM

Please fill in: IC50 reported for Cn1cc(-c2n[nH]c3cnc(N4CCc5ncsc5C4)nc23)cn1 = 500 to 2000 nM

Please fill in: IC50 reported for CN(C)C(=O)N1CCC(n2cc(-c3n[nH]c4cnc(N5C6CCC5C(=O)N(C)C6)nc34)cn2)CC1 (centres unmarked) = 100 to 500 nM

---

molecular target: FGFR2 (P) (Homo sapiens (Human)); assay: FGFR Enzymatic Assay, FGFR2 phosphorylated; settings: FGFR2 (P) IC50 (nM), phosphorylated enzyme, ATP near or below Km
Sequence (P21802 22-821): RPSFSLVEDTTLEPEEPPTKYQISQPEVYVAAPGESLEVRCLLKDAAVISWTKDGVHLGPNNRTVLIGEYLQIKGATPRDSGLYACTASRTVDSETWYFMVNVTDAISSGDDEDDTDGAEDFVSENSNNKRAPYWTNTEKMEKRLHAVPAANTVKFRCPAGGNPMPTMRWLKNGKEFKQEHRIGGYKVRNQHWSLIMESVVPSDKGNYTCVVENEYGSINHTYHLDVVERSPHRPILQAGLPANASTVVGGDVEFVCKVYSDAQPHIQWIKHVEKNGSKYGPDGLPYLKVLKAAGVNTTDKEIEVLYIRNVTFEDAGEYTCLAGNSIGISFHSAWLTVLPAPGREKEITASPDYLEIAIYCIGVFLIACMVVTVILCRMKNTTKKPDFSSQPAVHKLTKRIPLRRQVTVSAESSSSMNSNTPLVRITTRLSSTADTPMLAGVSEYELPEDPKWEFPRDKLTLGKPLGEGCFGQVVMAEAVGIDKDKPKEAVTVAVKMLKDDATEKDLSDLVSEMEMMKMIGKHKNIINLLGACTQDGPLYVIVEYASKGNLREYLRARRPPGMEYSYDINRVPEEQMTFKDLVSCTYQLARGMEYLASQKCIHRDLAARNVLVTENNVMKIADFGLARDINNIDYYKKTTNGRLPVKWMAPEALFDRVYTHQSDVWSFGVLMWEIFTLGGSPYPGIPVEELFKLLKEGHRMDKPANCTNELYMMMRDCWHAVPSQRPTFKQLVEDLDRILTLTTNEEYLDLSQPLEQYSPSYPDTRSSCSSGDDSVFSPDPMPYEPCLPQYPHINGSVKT
TEST READOUT: IC50

Please fill in: IC50 reported for CC1c2nccn2CCN1c1ncc2[nH]nc(-c3cnn(C)c3)c2n1 (centres unmarked) = 100 to 500 nM

Please fill in: IC50 reported for Cn1cc(-c2n[nH]c3cnc(N4CCn5cnc(C(F)(F)F)c5C4)nc23)cn1 = 100 to 500 nM

Please fill in: IC50 reported for C[C@@H]1CN(c2ccc(-c3n[nH]c4cnc(N5CCc6c(ncn6C)C5)nc34)cn2)CCN1 = 100 to 500 nM

Please fill in: IC50 reported for C[C@@H]1CN(c2ccc(-c3n[nH]c4cnc(N5[C@H](C)COC[C@@H]5C)nc34)cn2)CCN1 = 100 to 500 nM

Please fill in: IC50 reported for CN1CC2CCC(C1=O)N2c1ncc2[nH]nc(-c3cnn(C4CCC4)c3)c2n1 (single isomer, unassigned) = 500 to 2000 nM

Please fill in: IC50 reported for Cc1cc(C#N)ccc1-n1cc(-c2n[nH]c3cnc(N4C5CCC4C(=O)N(C)C5)nc23)cn1 (centres unmarked) = 100 to 500 nM

Please fill in: IC50 reported for CC(C)NC(=O)N1C[C@@H](C)N(c2ncc3[nH]nc(-c4ccc(N5CCN[C@H](C)C5)nc4)c3n2)[C@@H](C)C1 = 500 to 2000 nM

Please fill in: IC50 reported for CN1CCN(c2ncc3[nH]nc(-c4cnn(C)c4)c3n2)CC1=O = 100 to 500 nM

---

target: ALK2 (Homo sapiens (Human), UniProt Q04771); experiment: ALK2 Cellular Assay (phospho SMAD1 HTRF, BMP-7 stimulated HeLa cells); format: cell-based; settings: HeLa cells, 200 ng/ml BMP-7, Phospho SMAD1 (S463/S465) HTRF; read-out: ALK2 Cellular Assay PSMAD
Sequence (Q04771 21-509): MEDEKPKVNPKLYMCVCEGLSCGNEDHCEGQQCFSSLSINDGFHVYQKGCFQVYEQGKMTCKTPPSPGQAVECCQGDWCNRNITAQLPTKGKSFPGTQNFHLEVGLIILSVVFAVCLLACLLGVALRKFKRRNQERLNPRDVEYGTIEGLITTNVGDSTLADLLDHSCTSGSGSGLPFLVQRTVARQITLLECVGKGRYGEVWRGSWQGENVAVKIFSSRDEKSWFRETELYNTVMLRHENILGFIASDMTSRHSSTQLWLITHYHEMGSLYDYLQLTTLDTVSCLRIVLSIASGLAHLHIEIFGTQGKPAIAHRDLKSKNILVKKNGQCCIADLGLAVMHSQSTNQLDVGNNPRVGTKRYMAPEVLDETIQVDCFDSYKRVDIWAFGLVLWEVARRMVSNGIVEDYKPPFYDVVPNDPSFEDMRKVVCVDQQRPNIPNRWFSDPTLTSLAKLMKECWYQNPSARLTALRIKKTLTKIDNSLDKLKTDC
TEST READOUT: IC50

Field IC50 (system: ALK2 (Homo sapiens (Human), UniProt Q04771)) for entry C[C@@H]1CN(c2ccc(-c3n[nH]c4cnc(N5[C@H](C)CN(C(=O)N(C)C)C[C@@H]5C)nc34)cn2)CCN1 = 100 to 500 nM

Field IC50 (system: ALK2 (Homo sapiens (Human), UniProt Q04771)) for entry Cc1cnc2n1CCN(c1ncc3[nH]nc(-c4ccc(N5CCN[C@H](C)C5)nc4)c3n1)C2 = 100 to 500 nM

Field IC50 (system: ALK2 (Homo sapiens (Human), UniProt Q04771)) for entry C[C@@H]1CN(c2ccc(-c3n[nH]c4cnc(N5C6CCC5CC6)nc34)cn2)CCN1 = 100 to 500 nM

Field IC50 (system: ALK2 (Homo sapiens (Human), UniProt Q04771)) for entry COC(=O)N1C[C@@H](C)N(c2ncc3[nH]nc(-c4ccc(N5CCO[C@H](C)C5)nc4)c3n2)[C@@H](C)C1 = 100 to 500 nM

Field IC50 (system: ALK2 (Homo sapiens (Human), UniProt Q04771)) for entry CCN1CCN(c2ccc(-c3n[nH]c4cnc(N5[C@H](C)CN(C(=O)OC)C[C@@H]5C)nc34)cc2C)CC1 = 100 to 500 nM

Field IC50 (system: ALK2 (Homo sapiens (Human), UniProt Q04771)) for entry C[C@@H]1CN(c2ccc(-c3n[nH]c4cnc(N5[C@H](C)CN(C(=O)OCCF)C[C@@H]5C)nc34)cn2)CCN1 = < 100 nM

Field IC50 (system: ALK2 (Homo sapiens (Human), UniProt Q04771)) for entry C[C@@H]1CN(c2ccc(-c3n[nH]c4cnc(N5C[C@@H]6C[C@H]5CN6C(=O)N5CCCC5)nc34)cn2)CCN1 = 500 to 2000 nM

Field IC50 (system: ALK2 (Homo sapiens (Human), UniProt Q04771)) for entry COC(=O)N1C[C@@H](C)N(c2ncc3[nH]nc(-c4ccc(N5CCN(C)[C@H](C)C5)nc4)c3n2)[C@@H](C)C1 = < 100 nM

---

biological target: FGFR3 (Homo sapiens, UniProt P22607); assay: pFGFR3 Functional Cell HTRF Assay (BAF3-TEL-FGFR3 cells); settings: 2 hours
Sequence (P22607 23-806 limits assumed): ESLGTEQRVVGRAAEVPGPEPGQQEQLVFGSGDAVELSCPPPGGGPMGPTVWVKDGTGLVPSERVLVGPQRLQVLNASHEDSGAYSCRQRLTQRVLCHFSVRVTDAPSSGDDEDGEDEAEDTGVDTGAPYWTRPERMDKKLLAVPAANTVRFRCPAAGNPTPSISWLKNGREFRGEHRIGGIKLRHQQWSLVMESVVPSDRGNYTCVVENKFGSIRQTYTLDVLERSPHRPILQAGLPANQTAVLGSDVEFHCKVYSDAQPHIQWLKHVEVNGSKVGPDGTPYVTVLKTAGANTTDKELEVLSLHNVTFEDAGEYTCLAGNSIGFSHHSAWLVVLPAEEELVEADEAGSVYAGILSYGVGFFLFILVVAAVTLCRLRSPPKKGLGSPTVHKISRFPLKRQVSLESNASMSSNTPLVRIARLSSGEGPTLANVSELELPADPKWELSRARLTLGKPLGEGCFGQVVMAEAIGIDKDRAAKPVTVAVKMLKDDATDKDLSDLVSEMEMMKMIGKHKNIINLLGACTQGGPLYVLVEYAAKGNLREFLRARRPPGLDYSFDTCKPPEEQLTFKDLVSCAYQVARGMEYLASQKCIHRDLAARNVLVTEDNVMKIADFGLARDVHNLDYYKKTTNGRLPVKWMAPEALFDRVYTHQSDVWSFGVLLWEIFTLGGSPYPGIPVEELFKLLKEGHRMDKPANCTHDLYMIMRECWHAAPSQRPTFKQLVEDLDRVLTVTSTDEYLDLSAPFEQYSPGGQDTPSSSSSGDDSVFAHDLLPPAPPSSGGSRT
pIC50: −log10 of the molar value.
TEST READOUT: pIC50

Field pIC50 (system: FGFR3 (Homo sapiens, UniProt P22607)) for entry CN1CC2CCC(C1=O)N2c1ncc2[nH]nc(-c3cnn(-c4ccc(N(C)C)nc4)c3)c2n1 (stereo not drawn) = > 7.00

Field pIC50 (system: FGFR3 (Homo sapiens, UniProt P22607)) for entry CN1CC2CCC(C1=O)N2c1ncc2[nH]nc(-c3cnn(-c4ccc(C#N)cc4)c3)c2n1 (stereo not drawn) = > 7.00

Field pIC50 (system: FGFR3 (Homo sapiens, UniProt P22607)) for entry CNC(=O)c1ccc(-n2cc(-c3n[nH]c4cnc(N5C6CCC5C(=O)N(C)C6)nc34)cn2)cc1F (stereo not drawn) = > 7.00

Field pIC50 (system: FGFR3 (Homo sapiens, UniProt P22607)) for entry Cc1cc(-n2cc(-c3n[nH]c4cnc(N5C6CCC5C(=O)N(C)C6)nc34)cn2)ccn1 (stereo not drawn) = > 7.00

Field pIC50 (system: FGFR3 (Homo sapiens, UniProt P22607)) for entry CN1CC2CCC(C1=O)N2c1ncc2[nH]nc(-c3cnn(-c4ccncc4)c3)c2n1 (stereo not drawn) = > 7.00

Field pIC50 (system: FGFR3 (Homo sapiens, UniProt P22607)) for entry CN1CC2CCC(C1=O)N2c1ncc2[nH]nc(-c3cnn(CC(F)(F)F)c3)c2n1 (stereo not drawn) = 6.30 to 7.00

Field pIC50 (system: FGFR3 (Homo sapiens, UniProt P22607)) for entry CC(C)n1cc(-c2n[nH]c3cnc(N4C5CCC4C(=O)N(C)C5)nc23)cn1 (stereo not drawn) = 6.30 to 7.00

Field pIC50 (system: FGFR3 (Homo sapiens, UniProt P22607)) for entry CCN1CC2CCC(C1=O)N2c1ncc2[nH]nc(-c3cnn(C)c3)c2n1 (stereo not drawn) = 6.30 to 7.00

Field pIC50 (system: FGFR3 (Homo sapiens, UniProt P22607)) for entry Cc1cc(-n2cc(-c3n[nH]c4cnc(N5C6CCC5C(=O)N(C)C6)nc34)cn2)ccc1C#N (stereo not drawn) = > 7.00
